Data provenance: PubChem BioAssay

- experimentalTarget: Torsin-1A (Homo sapiens)
- experimentNotes: small-molecule binders of mutant TOR1A in lysate, primary screen, cell lysate, small-molecule microarray, COS7 lysate, 635/667 nm fluorescence (AID 1150);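 note: score pools 667 nm emission and signal to noise measuring lysate protein binding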
- experimentalContext: COS7 hTOR1A mutant lysate, 635 nm fluorescence, higher = more signal
Threshold rule: composite z-score greater than or equal to 0.5 is Y; below that, N.

Below are worked cases with known answers.
- molecule: "[N-]=[N+]=NCc1ccccc1[C@@H]1OC(c2ccc(OCCCO)cc2)=N[C@]1(Cc1ccccc1N=[N+]=[N-])C(=O)N1CCCCC1"
  experimentalTarget: "Torsin-1A (Homo sapiens)"
  category: "Y"
- molecule: "CO[C@H]1O[C@H](CO)[C@@H](OC(=O)Nc2ccc(C#N)cc2)[C@@H]2OC(=O)[C@H](Cc3cccc(Br)c3)C/C=C/C[C@@H](Cc3cccc(Br)c3)C(=O)O[C@@H]12"
  experimentalTarget: "Torsin-1A (Homo sapiens)"
  category: "N"
- molecule: "COC(=O)[C@@]1(Cc2ccccc2)[C@H]2c3cc(C(=O)N(C)C)n(CCn4cc([N+](=O)[O-])nc4C)c3C[C@H]2CN1C(=O)c1ccccc1"
  experimentalTarget: "Torsin-1A (Homo sapiens)"
  category: "N"
- molecule: "CCC(CC)C(O)C1C=CC2C(=O)N(c3ccccc3)C(=O)C2N1Nc1ccc([N+](=O)[O-])cc1 (stereo unspecified)"
  experimentalTarget: "Torsin-1A (Homo sapiens)"
  category: "N"
- molecule: "COCCOC(=O)N1C(=O)[C@@]2(c3cc(C#CC4(O)CCCCCC4)ccc31)[C@H](C(=O)N1CCN(c3ncccn3)CC1)[C@H]1C(=O)O[C@H](c3ccccc3)[C@H](c3ccccc3)N1[C@@H]2c1ccccc1OCCO"
  experimentalTarget: "Torsin-1A (Homo sapiens)"
  category: "Y"

Proceed to the following item.
I'd appreciate it if you could say whether `COC(=O)[C@@]1(Cc2ccccc2)[C@H]2c3cc(C(=O)N4CCCC4)n(CCSCCO)c3C[C@H]2CN1C(=O)c1ccccc1` has composite z-score at least equal to 0.5.
Y
